Source: patent US5208223A

biological target: porcine pancreatic PLA2 (Sus scrofa); construct: purchased Sigma; assay: HPLA2 assay: in vitro porcine pancreatic phospholipase A2, preincubation design, [s]=10 μm; format: biochemical; conditions: dose 50 μ/ml, subs. con. 10, read-out: % Inh. Avg.
Sequence (P00592 23-146): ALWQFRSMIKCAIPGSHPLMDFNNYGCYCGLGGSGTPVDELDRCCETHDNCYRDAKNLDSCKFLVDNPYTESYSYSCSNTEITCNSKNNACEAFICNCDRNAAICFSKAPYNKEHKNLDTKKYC
Field: inhibition at 50 µg/mL. Provide a value for each of the compounds that follow.
Numbers only, in %.

> print(dat)
                                   compound              value.type  reported.result
1  CCCCCCCCCCCCCCCCOC[C@H](COP(=O)([O-])OCC[N+](C)(C)C)OP(=O)(OC)OCCCCCCCCCCCCCCCC (single isomer, unassigned)  inhibition at 50 µg/mL               30
2  CCCCCCCCCCCCCCCCOCC(COP(=O)([O-])OCC[N+](C)(C)C)OP(=O)(O)OCCCCCCCCCCCCCCCC (single isomer, unassigned; more polar)  inhibition at 50 µg/mL               32
3  CCCCCCCCCCCCCCCCOC[C@@H](COP(=O)([O-])OCC[N+](C)(C)C)OP(=O)(OC)OCCCCCCCCCCCCCCCC (single isomer, unassigned)  inhibition at 50 µg/mL               23

# next compound below
What the record says about CCCCCCCCCCCCCCCCOCC(COP(=O)([O-])OCC[N+](C)(C)C)C[S+]([O-])CCCCCCCCCCCCCCCC (stereo not shown) : inhibition at 50 µg/mL is 42
